Measured IC50, listed per entry.
- system.tested: PARP2 (Homo sapiens)
- test.description: ELISA enzyme inhibition assay
- Type: biochemical
- study.conditions: read-out: PARP2 Enzyme / IC50 (nM)^b
assay.readout: IC50 (nM)

INSERT INTO results (smi, display_unit, experimental_value) VALUES
  ('CCn1c(=O)[nH]c2sc(CN3CCN(c4ccc(C(=O)NC)nc4)CC3)c(C)c2c1=O', 'nM', 741),
  ('CCNC(=O)Nc1cc(CN2CCN(c3ccc(C(=O)NC)nc3)CC2)c2ccccc2n1', 'nM', 2.4);

----------
- system.tested: PARP2 (Homo sapiens)
- test.description: biochemical
- Design: PARP2 ELISA on histone-coated plates, biotin-NAD+, streptavidin-HRP, chemiluminescence
Measured inhibition at 0.01 µM, listed per entry for reference.
assay.readout: inhibition at 0.01 µM (%)

INSERT INTO results (smi, system_tested, experimental_value) VALUES
  ('CNC(=O)c1ccc(N2CCN(CC#Cc3cccc4cn[nH]c34)CC2)cn1', 'PARP2 (Homo sapiens)', 2.3),
  ('CCNC(=O)Nc1cc(CN2CCN(c3ccc(C(=O)NC)nc3)CC2)c2ccccc2n1', 'PARP2 (Homo sapiens)', 87.6),
  ('O=C(c1ccc(C(F)(F)F)c(=O)[nH]1)N1CCN(c2ccc3cc[nH]c3c2)CC1', 'PARP2 (Homo sapiens)', -0.8),
  ('CNC(=O)c1ccc(N2CCN(Cc3ccc4c(c3)[nH]c3ncccc34)CC2)cn1', 'PARP2 (Homo sapiens)', 1.4),
  ('CCn1c(=O)[nH]c2sc(CN3CCN(c4ccc(C(=O)NC)nc4)CC3)c(C)c2c1=O', 'PARP2 (Homo sapiens)', -1.6);

----------
- system.tested: PARP2 (Homo sapiens, UniProt Q9UGN5)
- Sequence (Q9UGN5 whole entry): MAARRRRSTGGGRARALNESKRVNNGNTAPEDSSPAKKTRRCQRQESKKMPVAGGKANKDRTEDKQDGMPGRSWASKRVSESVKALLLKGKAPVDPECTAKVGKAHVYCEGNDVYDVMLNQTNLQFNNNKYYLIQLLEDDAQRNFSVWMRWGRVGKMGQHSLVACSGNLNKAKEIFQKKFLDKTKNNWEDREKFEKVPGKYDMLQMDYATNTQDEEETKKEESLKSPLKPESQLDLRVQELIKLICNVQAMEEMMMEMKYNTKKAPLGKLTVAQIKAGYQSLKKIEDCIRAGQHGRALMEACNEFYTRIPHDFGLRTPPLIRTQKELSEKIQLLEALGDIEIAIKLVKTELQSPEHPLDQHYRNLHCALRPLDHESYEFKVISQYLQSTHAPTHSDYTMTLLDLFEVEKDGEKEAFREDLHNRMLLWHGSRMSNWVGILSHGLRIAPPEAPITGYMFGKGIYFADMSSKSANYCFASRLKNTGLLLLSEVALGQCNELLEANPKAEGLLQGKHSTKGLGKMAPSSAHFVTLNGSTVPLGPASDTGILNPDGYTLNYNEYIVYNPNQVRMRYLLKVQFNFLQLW
- Design: PARP2 ELISA on histone-coated plates, biotin-NAD+, streptavidin-HRP, chemiluminescence
- study.conditions: inhibitor
Catalogue of IC50 values
assay.readout: IC50

INSERT INTO measurements (compound, experimental_value) VALUES
  ('CNC(=O)c1ccc(N2CCN(Cc3ccc4c(c3)[nH]c3ncccc34)CC2)cn1 [Y5]', '> 10 µM'),
  ('O=C(c1ccc(C(F)(F)F)c(=O)[nH]1)N1CCN(c2ccc3cc[nH]c3c2)CC1 [Z5]', '> 10 µM'),
  ('CNC(=O)c1ccc(N2CCN(CC#Cc3cccc4cn[nH]c34)CC2)cn1 [Y2]', '> 10 µM');

----------
- system.tested: PARP1 (Homo sapiens)
- test.description: ELISA enzyme inhibition assay
- Assay type: biochemical
- study.conditions: read-out: PARP1 Enzyme / IC50 (nM)^b
assay.readout: IC50 (nM)

INSERT INTO assay_data (compound, display_unit, experimental_value) VALUES
  ('CCn1c(=O)[nH]c2sc(CN3CCN(c4ccc(C(=O)NC)nc4)CC3)c(C)c2c1=O [Y4]', 'nM', 86.5),
  ('CNC(=O)c1ccc(N2CCN(Cc3ccc4c(c3)[nH]c3ncccc34)CC2)cn1 [Y5]', 'nM', 12.7),
  ('CCNC(=O)Nc1cc(CN2CCN(c3ccc(C(=O)NC)nc3)CC2)c2ccccc2n1 [Y6]', 'nM', 6);

----------
- system.tested: PARP1 (Homo sapiens, UniProt P09874)
- Sequence (P09874 2-1014): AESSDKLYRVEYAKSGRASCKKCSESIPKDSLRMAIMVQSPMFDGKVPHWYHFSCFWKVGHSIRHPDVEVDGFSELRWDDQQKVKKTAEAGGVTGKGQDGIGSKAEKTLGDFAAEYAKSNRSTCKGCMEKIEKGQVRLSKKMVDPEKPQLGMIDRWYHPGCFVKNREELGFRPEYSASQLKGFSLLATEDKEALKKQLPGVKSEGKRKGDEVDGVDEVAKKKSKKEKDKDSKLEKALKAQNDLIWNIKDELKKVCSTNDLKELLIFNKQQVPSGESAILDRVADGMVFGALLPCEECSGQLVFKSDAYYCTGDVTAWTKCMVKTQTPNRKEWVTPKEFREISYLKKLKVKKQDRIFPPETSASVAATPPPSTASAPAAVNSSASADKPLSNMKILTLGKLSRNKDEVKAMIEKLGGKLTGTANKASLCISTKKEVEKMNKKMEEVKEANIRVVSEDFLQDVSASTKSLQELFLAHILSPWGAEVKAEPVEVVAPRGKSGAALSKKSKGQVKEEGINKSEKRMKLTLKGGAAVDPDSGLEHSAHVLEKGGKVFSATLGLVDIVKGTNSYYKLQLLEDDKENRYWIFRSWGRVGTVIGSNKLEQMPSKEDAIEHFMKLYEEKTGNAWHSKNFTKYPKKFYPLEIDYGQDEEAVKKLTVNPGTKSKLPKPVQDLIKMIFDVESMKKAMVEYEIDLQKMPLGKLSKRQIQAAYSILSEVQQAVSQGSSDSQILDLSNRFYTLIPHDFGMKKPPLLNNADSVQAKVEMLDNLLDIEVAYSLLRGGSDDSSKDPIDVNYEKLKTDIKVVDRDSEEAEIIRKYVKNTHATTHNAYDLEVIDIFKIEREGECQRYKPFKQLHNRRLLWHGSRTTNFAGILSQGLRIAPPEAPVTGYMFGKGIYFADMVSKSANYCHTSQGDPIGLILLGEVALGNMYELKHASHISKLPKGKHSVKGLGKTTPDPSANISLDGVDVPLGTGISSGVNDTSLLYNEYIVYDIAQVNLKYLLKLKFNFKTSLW
- test.description: biochemical
- Design: PARP1 ELISA on histone-coated plates, NAD+, anti-PAR antibody with HRP, chemiluminescence
Measured inhibition at 0.01 µM, listed per entry for reference.
assay.readout: inhibition at 0.01 µM (%)

INSERT INTO results (compound, assay_readout, experimental_value) VALUES
  ('O=C(c1ccc(C(F)(F)F)c(=O)[nH]1)N1CCN(c2ccc3cc[nH]c3c2)CC1 [Z5]', 'inhibition at 0.01 µM', 7.3),
  ('CCn1c(=O)[nH]c2sc(CN3CCN(c4ccc(C(=O)NC)nc4)CC3)c(C)c2c1=O [Y4]', 'inhibition at 0.01 µM', 20.7),
  ('CNC(=O)c1ccc(N2CCN(CC#Cc3cccc4cn[nH]c34)CC2)cn1 [Y2]', 'inhibition at 0.01 µM', -0.1),
  ('CCNC(=O)Nc1cc(CN2CCN(c3ccc(C(=O)NC)nc3)CC2)c2ccccc2n1 [Y6]', 'inhibition at 0.01 µM', 70.5),
  ('CNC(=O)c1ccc(N2CCN(Cc3ccc4c(c3)[nH]c3ncccc34)CC2)cn1 [Y5]', 'inhibition at 0.01 µM', 46);

----------
- system.tested: UniProtKB P09874
- Design: PARP1 ELISA on histone-coated plates, NAD+, anti-PAR antibody with HRP, chemiluminescence
- study.conditions: inhibitor
assay.readout: IC50

INSERT INTO results (smi, experimental_value) VALUES
  ('O=C(c1ccc(C(F)(F)F)c(=O)[nH]1)N1CCN(c2ccc3cc[nH]c3c2)CC1', '> 10 µM'),
  ('CNC(=O)c1ccc(N2CCN(CC#Cc3cccc4cn[nH]c34)CC2)cn1', '9.8 µM');
